Tested on: U251 CNS
Experiment: NCI-60 one-dose screen, 48 h (100 = growth as untreated, 0 = no growth, -100 = all killed)
Settings: 10 µM unless noted
Experimental: Growth inhibition of the U251 human tumor cell line is measured as a screen for anti-cancer activity. Cells are grown in 96 well plates and exposed to the test compound for 48 hours. Compounds are tested at a single concentration, which is 10^-5 M for most compounds. The reported endpoint is percent growth (GI% or GIPRCNT), where numbers from 0 - 100% represent growth inhibition, and numbers from -100% - 0 represent cell death. For example, a value of 40 represents 60% growth inhibition. […]
About 83,000 compounds went through this panel and 20% of them were active in at least one assay; those are over-represented in the sample as a whole.
// map growth onto a label; ranges category 1 (below 30%), category 2 (30% to below 80%), category 3 (80% or more)

COMPOUND: COc1nc(N(C)O)nc(N(C)O)n1
TESTED_TARGET: U251 CNS
CLASS: category 1
--
COMPOUND: O=C(CSc1nccc(Nc2ccc(S(=O)(=O)Nc3nccs3)cc2)n1)c1ccc(F)cc1
TESTED_TARGET: U251 CNS
CLASS: category 3
--
COMPOUND: NC(=N\N=C/c1ccccc1[N+](=O)[O-])/C(N)=N\N=C/c1ccccc1[N+](=O)[O-]
TESTED_TARGET: U251 CNS
CLASS: category 3
--
COMPOUND: COc1cccc(Nc2nccc(Nc3ccc4[nH]ncc4c3)n2)c1
TESTED_TARGET: U251 CNS
CLASS: category 1

Data request: The entry to classify is NS(=O)(=O)c1ccc(-n2nc(C(=O)N/N=C\c3ccc(F)cc3)cc2-c2ccc(Cl)cc2)cc1 ; which class holds it?
Data returned: category 3

Data request: GET /class?item= Nc1ccc2c(c1)c(N)nn2C(=O)Nc1ccc(Cc2ccccc2)cc1
Data returned: category 2

Data request: Just checking, what class would you give COc1ccc(C2CC(c3cccc(OC)c3)=NN2C(=O)c2cc(OC)c(OC)c(OC)c2)cc1 (stereo unspecified) here?
Data returned: category 2

Data request: For this compound, which bin applies? O=C(N=c1oc2ccccc2cc1-c1cc2ccccc2[nH]1)c1ccc(Cl)cc1
Data returned: category 1

Data request: Band for the recorded growth of COc1ccc2c(c1)O/C(=C\c1cccc(OCC(=O)Nc3nc4ccccc4s3)c1)C2=O ?
Data returned: category 2

Data request: Record O=C1/C(=C\c2c[nH]c3ccccc23)c2ccccc2N1c1c(Cl)cccc1Cl — which class?
Data returned: category 1
